I'd appreciate it if you could supply melting point values for the items below.

Give one value of melting point per listed compound.
1. CC(=O)NCC1CC1c1cccc2nc(C)cn12 (stereo unspecified)
2. COc1cc(OC)c2c(=O)[nH]c(-c3ccc4[nH]nc(CO)c4c3)nc2c1
3. OCc1cc(-c2ccc3nnn(Cc4ccc5ncccc5c4)c3n2)cs1
4. CCC(O)c1cc2cc(O)c(Cl)c(Cl)c2s1 (stereo unspecified)
5. CCn1cc(C(=O)O)c(=O)c2cc(Cl)c(N(C)C)cc21
6. O=[N+]([O-])c1cc(F)ccc1N1CCNCC1

170 to 171 °C
264 to 266 °C
188 to 191 °C
145 to 146 °C
210 °C
85 to 87 °C

Give one value of melting point per listed compound.
1. COc1ccc(S(=O)(=O)N(Cc2ccccc2)c2c(C(=O)O)cnc3c2c(C)nn3C)cc1
2. COc1ccc(-c2cc(NCc3ccccc3)nnc2-c2ccc(OC)cc2)cc1
3. CN(C(=NC#N)Nc1cccnc1)C(NC(=O)c1ccc(Cl)cc1)C(C)(C)C (stereo unspecified)
4. NC(N)=Nc1nc(-c2cccc(CCl)n2)cs1
5. N#Cc1ccc(NC(=O)NC(=O)c2ccccc2Cl)c(Cl)c1Cl
6. CC1(C)C(=O)NC(=O)c2c1ccc1nc(Nc3c(Cl)cccc3Cl)sc21
7. CCc1cc(/C=C/[N+](=O)[O-])ccc1N=C1SCC2(CCCC2)N1C1CCCC1

1: 165 to 167 °C; 2: 125 to 126 °C; 3: 127 to 129 °C; 4: 260 to 261 °C; 5: 278 to 282 °C; 6: > 300 °C; 7: 141 to 142 °C

Give one value of melting point per listed compound.
1. COc1cc(NC(C)=O)c(Cl)cc1C(=O)NN1CCN(Cc2cccs2)CC1
2. COCN(COC)c1ccn2nc(-c3ccccc3)c(-c3ccc(=O)n(C(C)C)n3)c2c1
3. CCOC(=O)CNC(=O)Nc1c(-c2ccccc2OC)c2ccccc2c(=O)n1C
4. Fc1ccc(-c2nc3ccccn3c2-c2ccnc(-c3ccc(CN4CCCC4)cc3)c2)cc1F
5. Cc1cc(O)nc(SCC(N)=O)n1
6. CC(=O)C1CCC2C3CCC4CC(O)C(Br)CC4(C)C3C(=O)CC12C (stereo unspecified)

1. 178 to 181 °C
2. 148 to 150 °C
3. 128 to 130 °C
4. 155 °C
5. 238 to 240 °C
6. 172 to 173 °C

Give one value of melting point per listed compound.
1. CCCCCc1cc(O)c2c(c1)OC(C)(C)C1=C2CC(C)(C)S1
2. Cc1cn(C)c2ccc(NC(=O)Nc3cccnc3)cc12

1. 109 to 110 °C
2. 210 °C

* * *

I'd appreciate it if you could supply melting point values for the items below.

# annotated cases, reported melting point shown
> print(dat)
                                smiles.data  measurement.kind       measured
1  CC(C)Oc1cc(CCCNC(=O)NS(=O)(=O)c2ccccc2)n(Cc2ccc(Cl)cc2Cl)n1     melting point         149 °C
2            COC(=O)c1nc2nc(C(C)C)cc(O)n2n1     melting point  198 to 201 °C
3                 COc1cc2c(cc1OC)CC(C#N)=C2     melting point  140 to 141 °C
4  CC(=O)c1ccc(/C=C(\C)c2ccc3c(c2)C(C)(C)CCC3(C)C)cc1     melting point  148 to 149 °C
5        CC1(C)NC(=O)Oc2ccc(OCc3ccccc3)cc21     melting point         134 °C
6  CCOC(=O)N[C@@H]1[C@H](O)C(=O)N2[C@H](c3ccccc3)OC[C@@H]12     melting point  176 to 178 °C

Give one value of melting point per listed molecule.
1. O=C(c1ccc(Cl)cc1)n1c2c(c3ccccc31)CC(C(=O)O)(C(=O)O)CC2
2. CC(=O)NCC(=O)Nn1cccc1C(=O)c1ccccc1F
3. O=c1[nH]c(=O)n(-c2ccccc2)n1-c1ccccc1

["210 to 212 °C", "146 to 147 °C", "216 to 217 °C"]

Give one value of melting point per listed molecule.
1. CCCCCCCCCCN=C=O
2. Clc1nc(SCc2ccccc2)ncc1Br

110 to 112 °C
56 to 57 °C

Where these numbers come from: a melting point compilation (Tetko et al.; mined from patent text by program, amines drawn as free bases though some values may be those of a salt)
